- procedure_text: Pharmacokinetics in male beagle dogs after oral or 30-min intravenous administration, 1 mg/kg (LC/MS/MS)
- Assay type: in vivo
- experimental_setup: male, beagle, dog, plasma, iv, 1 mg/kg, 30 min iv, 1 mg/kg d-amphetamine base, individual dogs, read-out: CL of L-lysine-d-amphetamine (converted)
property: clearance (mL/min/kg)

INSERT INTO results (compound, test_result) VALUES
  ('CC(Cc1ccccc1)NC(=O)C(N)CCCCN [L-lysine-d-amphetamine]', 37);

* * *

- procedure_text: Pharmacokinetics in male beagle dogs after oral or 30-min intravenous administration, 1 mg/kg (LC/MS/MS)
- Assay type: in vivo
- experimental_setup: male, beagle, dog, plasma, iv, 1 mg/kg, 30 min iv, 1 mg/kg d-amphetamine base, individual dogs, read-out: AUC0-t of L-lysine-d-amphetamine
property: AUC(0-t) (ng·h/mL)

INSERT INTO assay_data (compound, property, endpoint_unit, test_result) VALUES
  ('CC(Cc1ccccc1)NC(=O)C(N)CCCCN (stereo not shown)', 'AUC(0-t)', 'ng·h/mL', 898);

* * *

- procedure_text: Oral bioavailability of peptide amphetamine conjugates (HCl salts, ELISA)
- experimental_setup: rats
# maps each entry to its Percent Cmax (relative to Amphetamine)
property: Percent Cmax (relative to Amphetamine) (%)

INSERT INTO measurements (compound, test_result) VALUES
  ('CC(Cc1ccccc1)NC(=O)C(O)C(O)C(O)C(O)CO (stereo not drawn) [Gulonate-Amp]', 1),
  ('[2H]OC(=O)CC[C@H](N)C(=O)NC(C)Cc1ccccc1 (stereo partly drawn)', 95),
  ('[2H]N1CCC[C@H]1C(=O)NC(C)Cc1ccccc1 (stereo partly drawn)', 3),
  ('[2H]N[C@@H](Cc1ccc(O)cc1)C(=O)NC(C)Cc1ccccc1 (stereo partly drawn)', 20),
  ('[2H]N[C@H](C(=O)NC(C)Cc1ccccc1)[C@@H](C)CC (stereo partly drawn)', 52),
  ('CC(Cc1ccccc1)NC(=O)CN (stereo not drawn)', 78),
  ('[2H]N(CC(=O)NC(C)Cc1ccccc1)C(=O)CN (stereo not drawn)', 88),
  ('[2H]OC(=O)CC[C@H](NC(=O)[C@@H](N)CCC(=O)O)C(=O)NC(C)Cc1ccccc1 (stereo partly drawn)', 74),
  ('[2H]N(C(=O)[C@H](CCC(=O)O)NC(=O)[C@@H](N)CCC(=O)O)[C@@H](Cc1ccccc1)C(=O)NC(C)Cc1ccccc1 (stereo partly drawn)', 73);

* * *

- procedure_text: Clinical pharmacokinetics, 25 and 75 mg, compared to Adderall XR and Dexedrine Spansule
- experimental_setup: human, in vivo, po, 75 mg, L-lysine-d-amphetamine intact conjugate concentration, oral 75 mg L-lysine-d-amphetamine, 2 h, mean
property: concentration at 2 h (ng/mL)

INSERT INTO assay_data (compound, endpoint_unit, test_result) VALUES
  ('CC(Cc1ccccc1)NC(=O)C(N)CCCCN [L-lysine-d-amphetamine]', 'ng/mL', 9.1);

* * *

- procedure_text: Clinical pharmacokinetics, 25 and 75 mg, compared to Adderall XR and Dexedrine Spansule
- experimental_setup: human, in vivo, po, 75 mg, L-lysine-d-amphetamine intact conjugate concentration, oral 75 mg L-lysine-d-amphetamine, 12 h, mean
property: concentration at 12 h

INSERT INTO results (compound, test_result) VALUES
  ('CC(Cc1ccccc1)NC(=O)C(N)CCCCN (stereo not shown)', '0 ng/mL');

* * *

- procedure_text: Clinical pharmacokinetics, 25 and 75 mg, compared to Adderall XR and Dexedrine Spansule
- experimental_setup: human, in vivo, po, 25 mg, L-lysine-d-amphetamine intact conjugate concentration, oral 25 mg L-lysine-d-amphetamine, 48 h, mean
property: concentration at 48 h (ng/mL)

INSERT INTO results (molecule, property, test_result) VALUES
  ('CC(Cc1ccccc1)NC(=O)C(N)CCCCN (stereo not shown)', 'concentration at 48 h', 0);

* * *

- procedure_text: Oral bioavailability at escalating doses (LC/MS/MS)
- experimental_setup: rat, in vivo, po, 12 mg/kg
property: AUC(0-inf) (ng·h/mL)

INSERT INTO results (compound, test_result) VALUES
  ('CC(Cc1ccccc1)NC(=O)C(N)CCCCN (stereo not shown)', 5170);

* * *

- procedure_text: Oral bioavailability of peptide amphetamine conjugates (HCl salts, ELISA)
- experimental_setup: rats
property: Percent Cmax (relative to Amphetamine) (%)

INSERT INTO measurements (molecule, property, endpoint_unit, test_result) VALUES
  ('[2H]N[C@@H](CC(C)C)C(=O)NC(C)Cc1ccccc1 (stereo partly shown)', 'Percent Cmax (relative to Amphetamine)', '%', 81),
  ('[2H]OC(=O)CC[C@H](NC(=O)[C@H](CCC(=O)O)NC(=O)[C@@H](N)CCC(=O)O)C(=O)NC(C)Cc1ccccc1 (stereo partly shown)', 'Percent Cmax (relative to Amphetamine)', '%', 53),
  ('[2H]OC(=O)CC[C@H](NC(=O)[C@@H](N)CC(C)C)C(=O)NC(C)Cc1ccccc1 (stereo partly shown)', 'Percent Cmax (relative to Amphetamine)', '%', 28),
  ('[2H]N(CC(=O)NC(C)Cc1ccccc1)C(=O)[C@@H](N)CCCCN (stereo partly shown)', 'Percent Cmax (relative to Amphetamine)', '%', 71),
  ('[2H]N(C(=O)[C@@H](N)Cc1ccccc1)[C@@H](Cc1ccccc1)C(=O)NC(C)Cc1ccccc1 (stereo partly shown)', 'Percent Cmax (relative to Amphetamine)', '%', 64),
  ('CC(Cc1ccccc1)NC(=O)C1CCCN1C(=O)C1CCCN1 (stereo not shown)', 'Percent Cmax (relative to Amphetamine)', '%', 80),
  ('[2H]N[C@@H](Cc1c[nH]cn1)C(=O)NC(C)Cc1ccccc1 (stereo partly shown)', 'Percent Cmax (relative to Amphetamine)', '%', 21);

* * *

- procedure_text: Clinical pharmacokinetics, 25 and 75 mg, compared to Adderall XR and Dexedrine Spansule
- experimental_setup: human, in vivo, po, 25 mg, L-lysine-d-amphetamine intact conjugate concentration, oral 25 mg L-lysine-d-amphetamine, 6 h, individual subjects
property: concentration at 6 h (ng/mL)

INSERT INTO measurements (compound, property, endpoint_unit, test_result) VALUES
  ('CC(Cc1ccccc1)NC(=O)C(N)CCCCN (stereo not shown)', 'concentration at 6 h', 'ng/mL', 0);

* * *

- procedure_text: Clinical pharmacokinetics, 25 and 75 mg, compared to Adderall XR and Dexedrine Spansule
- experimental_setup: human, in vivo, po, 75 mg, L-lysine-d-amphetamine intact conjugate concentration, oral 75 mg L-lysine-d-amphetamine, 6 h, mean
property: concentration at 6 h (ng/mL)

INSERT INTO results (compound, test_result) VALUES
  ('CC(Cc1ccccc1)NC(=O)C(N)CCCCN (stereo not shown)', 0);

* * *

- procedure_text: Clinical pharmacokinetics, 25 and 75 mg, compared to Adderall XR and Dexedrine Spansule
- experimental_setup: human, in vivo, po, 25 mg, L-lysine-d-amphetamine intact conjugate Tmax, oral 25 mg L-lysine-d-amphetamine, individual subjects
property: Tmax

INSERT INTO results (compound, property, test_result) VALUES
  ('CC(Cc1ccccc1)NC(=O)C(N)CCCCN (stereo not shown)', 'Tmax', '1 h');

* * *

- procedure_text: Pharmacokinetics in male beagle dogs after oral or 30-min intravenous administration, 1 mg/kg (LC/MS/MS)
- Format: in vivo
- experimental_setup: male, beagle, dog, plasma, po, 1 mg/kg, oral, 1 mg/kg d-amphetamine base, mean of 3 dogs, read-out: AUC0-t of L-lysine-d-amphetamine
property: AUC(0-t) (ng·h/mL)

INSERT INTO results (molecule, test_result) VALUES
  ('CC(Cc1ccccc1)NC(=O)C(N)CCCCN (stereo not shown)', 318);

* * *

- procedure_text: Clinical pharmacokinetics, 25 and 75 mg, compared to Adderall XR and Dexedrine Spansule
- experimental_setup: human, in vivo, po, 75 mg, L-lysine-d-amphetamine intact conjugate concentration, oral 75 mg L-lysine-d-amphetamine, 16 h, mean
property: concentration at 16 h

INSERT INTO measurements (compound, test_result) VALUES
  ('CC(Cc1ccccc1)NC(=O)C(N)CCCCN (stereo not shown)', '0 ng/mL');

* * *

- procedure_text: Clinical pharmacokinetics, 25 and 75 mg, compared to Adderall XR and Dexedrine Spansule
- experimental_setup: human, in vivo, po, 25 mg, L-lysine-d-amphetamine intact conjugate concentration, oral 25 mg L-lysine-d-amphetamine, 24 h, individual subjects
property: concentration at 24 h (ng/mL)

INSERT INTO assay_data (molecule, test_result) VALUES
  ('CC(Cc1ccccc1)NC(=O)C(N)CCCCN (stereo not shown)', 0);

* * *

- procedure_text: Clinical pharmacokinetics, 25 and 75 mg, compared to Adderall XR and Dexedrine Spansule
- experimental_setup: human, in vivo, po, 75 mg, L-lysine-d-amphetamine intact conjugate concentration, oral 75 mg L-lysine-d-amphetamine, 24 h, individual subjects
property: concentration at 24 h (ng/mL)

INSERT INTO results (compound, property, test_result) VALUES
  ('CC(Cc1ccccc1)NC(=O)C(N)CCCCN (stereo not shown)', 'concentration at 24 h', 0);
